Data credit: patent US20260201008A1

Target: human GLP-1 receptor (hGLP1R) (human, UniProt P43220 24-463)
Assay: cell-based or functional assay
Numbered stars: 1 amine (or outer) side, 2 acyl side, 3 side chain; on linkers, the order of the positions; unused ones are H or OH. Square brackets hold non-standard residues; d marks the D form. Side chains are listed from the residue outwards. Ends that are not written are not given here. * marks the point of attachment. C20 diacid = O=C(O)CCCCCCCCCCCCCCCCCCC(=O)*; γGlu = O=C(O)[C@H](CCC(=O)[*:2])N[*:1]; AEEA = NCCOCCOCC(=O)O; Aib = CC(C)(N)C(=O)O
metric: pEC50 hGLPR1

Example entries begin here.
In [3]: df
Out[3]:
                                     binder        metric       result
0  H[Aib]EGTFTSDVSYLKEEA[Aib]VQRFLEHLV-NH2 (not fully specified (residue 14)) [SEQ ID NO: 161]  pEC50 hGLPR1  11.4 -log M
1  H[Aib]EGTFTSDVSELKELAASQRFLEHLV-NH2 (not fully specified (residue 14)) [SEQ ID NO: 12]  pEC50 hGLPR1  10.7 -log M

Now look at this one.
Request: Param item = H[Aib]EGTFTSDVSFLK([AEEA-AEEA-γGlu-C20 diacid])E[Aib]AASQRFLEHLV-NH2 [SEQ ID NO: 74] ; retrieve measured pEC50 hGLPR1.
Response: 10.2 -log M
